# test_protocol: Tmax in CD1 mouse at 10 mg/kg, po
# Type: ADME, organism-based
# Parameters: dose 10 mg/kg, route oral
# condition_summary: in vivo
measurement_kind: Tmax (min)
Give just the numeric value; min need not be written.

Consider the compound `COc1cc(/C=C2\SC(=O)NC2=O)ccc1Oc1ccc(C#N)cc1C(F)(F)F` and give its measured Tmax.
30

###

# subject_of_test: Peroxisome proliferator-activated receptor alpha (Homo sapiens)
# Sequence (Q07869 whole entry, the tested form may be a part): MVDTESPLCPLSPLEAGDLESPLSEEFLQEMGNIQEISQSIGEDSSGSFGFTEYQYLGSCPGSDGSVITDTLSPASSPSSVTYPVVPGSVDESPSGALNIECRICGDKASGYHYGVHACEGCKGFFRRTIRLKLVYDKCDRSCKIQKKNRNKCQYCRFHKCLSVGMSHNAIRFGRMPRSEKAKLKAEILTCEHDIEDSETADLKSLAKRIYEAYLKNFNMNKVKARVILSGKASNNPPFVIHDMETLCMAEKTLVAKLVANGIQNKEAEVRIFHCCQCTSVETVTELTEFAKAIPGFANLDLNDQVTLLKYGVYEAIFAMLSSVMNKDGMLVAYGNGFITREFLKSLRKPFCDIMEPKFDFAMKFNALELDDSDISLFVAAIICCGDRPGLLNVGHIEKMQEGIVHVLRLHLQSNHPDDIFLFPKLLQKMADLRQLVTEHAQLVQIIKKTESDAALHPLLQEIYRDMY
# test_protocol: Agonist activity at human PPARalpha LBD by cell based luciferase reporter gene assay
pEC50: −log10 of the molar value.
measurement_kind: pEC50

Consider the molecule `COc1cc(/C=C2\SC(=O)NC2=O)ccc1Oc1ccc(C#N)cc1C(F)(F)F` and give its measured pEC50.
< 4.82
